# RUN DESCRIPTION: recombinant UMI read abundance after kanamycin selection (control-corrected) (log10(CPM+1)); higher = more efficient recombination; extreme values may be limits of the assay; sequences stand for … in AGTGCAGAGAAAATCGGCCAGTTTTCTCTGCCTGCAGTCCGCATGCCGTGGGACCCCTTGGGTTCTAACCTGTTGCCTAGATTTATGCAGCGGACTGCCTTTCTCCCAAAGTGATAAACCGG…AGGTTGGTTTCACT; site = the 11-nt donor;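 further: IS621 bridge recombinase in Escherichia coli cells against a fixed T5 target plasmid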
Recorded recombinant UMI read abundance (log10) determines the label; the label ranges are lower level (below 0.009), middle level (0.009 to below 0.5), upper level (0.5 or more)

Worked cases, answers included:
seq="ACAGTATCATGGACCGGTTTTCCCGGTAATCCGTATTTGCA (site ACAGTCACTTG)" class="upper level"
seq="AAAATATCATGGACCGGTTTTCCCGGTAATCCGTATTTGCA (site AAAATATCTTG)" class="upper level"
seq="CTACTAGCATGGACCGGTTTTCCCGGTAATCCGTATTTGAC (site CTAGTATCTGT)" class="lower level"
seq="AAGTAGGCATGGACCGGTTTTCCCGGTAATCCGTATTTGGC (site AGGTAGGCTGC)" class="middle level"
seq="GATTGGACATGGACCGGTTTTCCCGGTAATCCGTATTTGAG (site GATTGGACTTT)" class="middle level"
seq="CGGAAACCATGGACCGGTTTTCCCGGTAATCCGTATTTGAT (site CGGCAACCTAT)" class="middle level"
seq="GCGATGCCATGGACCGGTTTTCCCGGTAATCCGTATTTGGG (site GCGATGCCTCC)" class="middle level"
seq="CTACTAACATGGACCGGTTTTCCCGGTAATCCGTATTTGAA (site CTACTAACTTC)" class="middle level"

Inquiry: Category of AGAAAGACATGGACCGGTTTTCCCGGTAATCCGTATTTGCA (site AGCAAGACTTG) :
Reply text: upper level

Inquiry: Each sequence maps to one class by recombinant UMI read abundance (log10). Which class for TACTTGACATGGACCGGTTTTCCCGGTAATCCGTATTTGAT (site TACTTGACTAC) ?
Reply text: middle level

Inquiry: Band for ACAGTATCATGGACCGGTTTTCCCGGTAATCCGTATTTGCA (site ACAGTCTCTTG) ?
Reply text: upper level

Inquiry: // return the class label for AGGTTCCCATGGACCGGTTTTCCCGGTAATCCGTATTTGAG (site AGGTTCCCTCA)
Reply text: lower level

Inquiry: Any idea which band AAGGACGCATGGACCGGTTTTCCCGGTAATCCGTATTTGGG (site AAGGACGCTCC) is in?
Reply text: upper level

Inquiry: Pick a category. Item: GTGCATCCATGGACCGGTTTTCCCGGTAATCCGTATTTGGT (site GTGCATGCTAC)
Reply text: lower level

Inquiry: Kindly state the category for this sequence: AAACTTGCATGGACCGGTTTTCCCGGTAATCCGTATTTGGA (site AAACTTGCTTC)
Reply text: upper level

Inquiry: State the band of TTTAGAACATGGACCGGTTTTCCCGGTAATCCGTATTTGGC (site GTTAGAACTGC)
Reply text: lower level

Inquiry: // bin(item) where item = ATATAGACATGGACCGGTTTTCCCGGTAATCCGTATTTGCT (site ATATAGACTAG)
Reply text: upper level
